- target-of-assay: CHIP (Homo sapiens, UniProt Q9UNE7)
- Construct: N-term truncated CHIP (also known as STUB1, Uniprot ID: Q9UNE7, residues 23-303); made in house; host or cells: E. coli BL21 CodonPlus
- Sequence (Q9UNE7 23-303): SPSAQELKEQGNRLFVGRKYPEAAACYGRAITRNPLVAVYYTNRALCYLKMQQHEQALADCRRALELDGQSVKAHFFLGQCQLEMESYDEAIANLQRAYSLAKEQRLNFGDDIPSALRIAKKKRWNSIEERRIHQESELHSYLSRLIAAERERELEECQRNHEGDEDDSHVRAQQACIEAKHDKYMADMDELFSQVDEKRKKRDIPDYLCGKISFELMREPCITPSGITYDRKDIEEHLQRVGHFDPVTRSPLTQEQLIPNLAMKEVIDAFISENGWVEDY
- test-protocol: Naive Library Presenter Screening (phage, NGS), CHIP
- Format: binding
- reported-conditions: CHIP clusters (C83, C84); Blank = Media only, second column
Numbered stars: 1 amine (or outer) side, 2 acyl side, 3 side chain; on linkers, the order of the positions; unused ones are H or OH. Bridge positions count the residues as written; N and C are the ends. Ends that are not written are not given here. Phenylene(1,4-NHCOCH2)2 = O=C(C[*:1])Nc1ccc(NC(=O)C[*:2])cc1
measured-attribute: interaction data, BLANK

Worked examples, 2 sequences total:
sequence-chain	target-of-assay	result
DPANHICHYAAHICDVD (DPANHICHYAAHICDVD-NH2; linker 7-14 via Phenylene(1,4-NHCOCH2)2 (inferred))	CHIP (Homo sapiens, UniProt Q9UNE7)	0
DPAIIWCSQAASICTVD (linker 7-14 via Phenylene(1,4-NHCOCH2)2 (inferred))	CHIP (Homo sapiens, UniProt Q9UNE7)	0

Consider the record given below.
Give interaction data, BLANK for the following sequence: DPAINMCYRAAQICDVD (linker 7-14 via Phenylene(1,4-NHCOCH2)2 (inferred))
0

---

- target-of-assay: MDM2 (Homo sapiens, UniProt Q00987)
- Construct: made in house
- Sequence (Q00987 25-109): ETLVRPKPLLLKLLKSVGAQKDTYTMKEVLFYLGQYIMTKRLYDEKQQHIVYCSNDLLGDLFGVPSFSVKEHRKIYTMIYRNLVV
- test-protocol: Naive Library Presenter Screening (phage, NGS), MDM2
- Type: binding
- reported-conditions: MDM2 clusters (C82, C85); target concentration 1000 nM, first column
Numbered stars: 1 amine (or outer) side, 2 acyl side, 3 side chain; on linkers, the order of the positions; unused ones are H or OH. Bridge positions count the residues as written; N and C are the ends. Ends that are not written are not given here. Phenylene(1,4-NHCOCH2)2 = O=C(C[*:1])Nc1ccc(NC(=O)C[*:2])cc1
measured-attribute: interaction data at Target Concentration 1000
Numbers only.

Use these answered entries as a reference point.
sequence-chain	result
DPALMQCTEAAFWCYWE (linker 7-14 via Phenylene(1,4-NHCOCH2)2 (inferred); not fully specified (C-terminus))	24
DPASADCFNAAWDCMWI (DPASADCFNAAWDCMWI-NH2; linker 7-14 via Phenylene(1,4-NHCOCH2)2 (inferred))	124

For every item in the list below, what is its measured interaction data at Target Concentration 1000?
1. DPADRDCFSAAWACVIR (linker 7-14 via Phenylene(1,4-NHCOCH2)2 (inferred))
2. DPATESCEDAAFWCHWI (DPATESCEDAAFWCHWI-NH2; linker 7-14 via Phenylene(1,4-NHCOCH2)2 (inferred))

1. 160
2. 30

Values were extracted from patent US20240376151A1.
